All values here come from patent EP2570413A1.

# PROTOCOL SUMMARY: Plasma stability, human; also: time not given here
# Assay type: in vitro ADME
# ASSAY CONTEXT: Human; test compound 5 µM in plasma
Each entry below carries its recorded Plasma Stability Human.
QUANTITY: Plasma Stability Human

SMI | QUANTITY | TEST VALUE
O=c1nc(N2CCC(Cc3ccccc3)CC2)sc2c([N+](=O)[O-])cc(C(F)(F)F)cc12 | Plasma Stability Human | 98%
O=c1nc(N2CCC(c3ccc(F)c(F)c3)CC2)sc2c([N+](=O)[O-])cc(C(F)(F)F)cc12 | Plasma Stability Human | 124%
O=c1nc(N2CCC(c3ccc(Cl)cc3)CC2)sc2c([N+](=O)[O-])cc(C(F)(F)F)cc12 | Plasma Stability Human | 86%
O=c1nc(N2CCC(c3ccccc3)CC2)sc2c([N+](=O)[O-])cc(C(F)(F)F)cc12 | Plasma Stability Human | 96%

---

# PROTOCOL SUMMARY: Metabolic stability, mouse; also: time not given here
# Assay type: in vitro ADME
# ASSAY CONTEXT: Mouse; test compound 1 µM in NADP (1.3 mM), G6P 3.3 mM, G6PDHase, DMSO
Listed compounds paired with reported Metabolic Stability Mouse

SMI | Metabolic Stability Mouse [%]
O=c1nc(N2CCC(c3ccc(Cl)cc3)CC2)sc2c([N+](=O)[O-])cc(C(F)(F)F)cc12 | 39
O=c1nc(N2CCC(c3ccc(F)c(F)c3)CC2)sc2c([N+](=O)[O-])cc(C(F)(F)F)cc12 | 28
O=c1nc(N2CCC(c3cccc(F)c3)CC2)sc2c([N+](=O)[O-])cc(C(F)(F)F)cc12 | 10
O=c1nc(N2CCC(c3ccccc3F)CC2)sc2c([N+](=O)[O-])cc(C(F)(F)F)cc12 | 78
O=c1nc(N2CCC(c3ccccc3)CC2)sc2c([N+](=O)[O-])cc(C(F)(F)F)cc12 | 75
Cc1cccc(C2CCN(c3nc(=O)c4cc(C(F)(F)F)cc([N+](=O)[O-])c4s3)CC2)c1 | 18
Cc1ccc(C2CCN(c3nc(=O)c4cc(C(F)(F)F)cc([N+](=O)[O-])c4s3)CC2)cc1 | 9
O=c1nc(N2CCC(Cc3ccccc3)CC2)sc2c([N+](=O)[O-])cc(C(F)(F)F)cc12 | 0

---

# PROTOCOL SUMMARY: Plasma stability, human; also: time not given here
# Assay type: in vitro ADME
# ASSAY CONTEXT: Human; test compound 5 µM in plasma
Below, each of the compounds is paired with its reported Plasma Stability Human value.

COMPOUND | Plasma Stability Human, %
O=c1nc(N2CCC(c3cccc(F)c3)CC2)sc2c([N+](=O)[O-])cc(C(F)(F)F)cc12 [Compound 4] | 99
O=c1nc(N2CCC(c3ccccc3F)CC2)sc2c([N+](=O)[O-])cc(C(F)(F)F)cc12 [Compound 8] | 107
Cc1ccc(C2CCN(c3nc(=O)c4cc(C(F)(F)F)cc([N+](=O)[O-])c4s3)CC2)cc1 [Compound 3] | 98
Cc1cccc(C2CCN(c3nc(=O)c4cc(C(F)(F)F)cc([N+](=O)[O-])c4s3)CC2)c1 [Compound 7] | 103

---

Entries and their measured Plasma Stability Mouse follow.
# PROTOCOL SUMMARY: Plasma stability, mouse; also: time not given here
# Type: in vitro ADME
# ASSAY CONTEXT: Mouse; test compound 5 µM in plasma
QUANTITY: Plasma Stability Mouse

SMI | TEST VALUE
Cc1cccc(C2CCN(c3nc(=O)c4cc(C(F)(F)F)cc([N+](=O)[O-])c4s3)CC2)c1 | 100%
O=c1nc(N2CCC(c3ccccc3)CC2)sc2c([N+](=O)[O-])cc(C(F)(F)F)cc12 | 71%
O=c1nc(N2CCC(c3cccc(F)c3)CC2)sc2c([N+](=O)[O-])cc(C(F)(F)F)cc12 | 107%
O=c1nc(N2CCC(c3ccccc3F)CC2)sc2c([N+](=O)[O-])cc(C(F)(F)F)cc12 | 105%
O=c1nc(N2CCC(Cc3ccccc3)CC2)sc2c([N+](=O)[O-])cc(C(F)(F)F)cc12 | 108%
Cc1ccc(C2CCN(c3nc(=O)c4cc(C(F)(F)F)cc([N+](=O)[O-])c4s3)CC2)cc1 | 108%
O=c1nc(N2CCC(c3ccc(F)c(F)c3)CC2)sc2c([N+](=O)[O-])cc(C(F)(F)F)cc12 | 111%
O=c1nc(N2CCC(c3ccc(Cl)cc3)CC2)sc2c([N+](=O)[O-])cc(C(F)(F)F)cc12 | 88%
